# Measurement Target: T1, Human TROP2 ECD (31-274 AA), biotinylated (human, UniProt P09758 31-274, biotinylated (site not stated))
# T1 construct: also called tumor-associated calcium signal transducer 2; Human TROP2-biotin
# T1 sequence: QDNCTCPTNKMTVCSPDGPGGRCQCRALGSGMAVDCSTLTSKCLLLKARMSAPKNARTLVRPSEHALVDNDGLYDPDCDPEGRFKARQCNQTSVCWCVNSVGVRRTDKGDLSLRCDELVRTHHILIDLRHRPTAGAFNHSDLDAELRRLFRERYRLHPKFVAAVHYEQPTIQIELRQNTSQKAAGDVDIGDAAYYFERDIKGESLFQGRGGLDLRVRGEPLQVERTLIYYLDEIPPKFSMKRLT
# Test Summary: BLI (Octet), biotinylated human TROP2 ECD on SAX sensor, Fab 6.25-50 nM
pKd: −log10 of the molar value.
Lab note: anything with pKd at or over 9 counts as rule met; the rest go in rule not met.

-- ask Entry TBD-8 (anti-TROP2 Fab, LC P95A) (Fab, V domains shown) VH: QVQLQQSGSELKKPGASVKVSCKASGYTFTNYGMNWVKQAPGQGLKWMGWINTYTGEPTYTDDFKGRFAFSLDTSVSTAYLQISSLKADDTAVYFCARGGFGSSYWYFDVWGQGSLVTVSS VL: DIQLTQSPSSLSASVGDRVSITCKASQDVSIAVAWYQQKPGKAPKLLIYSASYRYTGVPDRFSGSGSGTDFTLTISSLQPEDFAVYYCQQHYITALTFGAGTKVEIKR : is its pKd no less than 9?
-- reply rule met

-- ask What do we get for TBD-9 (anti-TROP2 Fab, LC L96A) (Fab, V domains shown) VH: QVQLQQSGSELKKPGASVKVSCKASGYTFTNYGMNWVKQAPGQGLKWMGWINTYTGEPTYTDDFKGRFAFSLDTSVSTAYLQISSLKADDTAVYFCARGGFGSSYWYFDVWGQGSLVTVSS VL: DIQLTQSPSSLSASVGDRVSITCKASQDVSIAVAWYQQKPGKAPKLLIYSASYRYTGVPDRFSGSGSGTDFTLTISSLQPEDFAVYYCQQHYITPATFGAGTKVEIKR ?
-- reply rule not met

-- ask What do we get for TBD-2 (anti-TROP2 Fab, LC Q89A) (Fab, V domains shown) VH: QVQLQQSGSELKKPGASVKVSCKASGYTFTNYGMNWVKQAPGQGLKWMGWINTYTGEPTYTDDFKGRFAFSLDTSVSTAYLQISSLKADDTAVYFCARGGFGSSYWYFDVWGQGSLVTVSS VL: DIQLTQSPSSLSASVGDRVSITCKASQDVSIAVAWYQQKPGKAPKLLIYSASYRYTGVPDRFSGSGSGTDFTLTISSLQPEDFAVYYCAQHYITPLTFGAGTKVEIKR ?
-- reply rule not met
